- SYSTEM_UNDER_TEST: Kinase A and SpoOF (Bacillus subtilis)
- Sequence (P16497 whole entry): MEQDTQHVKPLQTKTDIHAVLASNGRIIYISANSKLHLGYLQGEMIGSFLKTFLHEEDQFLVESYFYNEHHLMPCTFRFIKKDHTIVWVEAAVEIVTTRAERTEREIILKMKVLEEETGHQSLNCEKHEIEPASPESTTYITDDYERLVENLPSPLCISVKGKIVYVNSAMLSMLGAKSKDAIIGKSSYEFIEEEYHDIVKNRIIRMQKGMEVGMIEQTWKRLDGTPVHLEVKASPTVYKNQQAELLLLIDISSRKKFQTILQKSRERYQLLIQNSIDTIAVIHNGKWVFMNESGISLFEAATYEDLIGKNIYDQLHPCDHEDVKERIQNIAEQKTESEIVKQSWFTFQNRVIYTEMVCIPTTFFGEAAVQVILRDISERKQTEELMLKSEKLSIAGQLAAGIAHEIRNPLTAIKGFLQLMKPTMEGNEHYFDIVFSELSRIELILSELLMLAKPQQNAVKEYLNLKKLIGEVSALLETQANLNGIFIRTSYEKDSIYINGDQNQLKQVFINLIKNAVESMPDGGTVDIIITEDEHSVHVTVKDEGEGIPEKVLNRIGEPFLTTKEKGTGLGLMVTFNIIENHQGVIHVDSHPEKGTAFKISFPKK
- EXPERIMENTAL_DETAILS: Autophosphorylation of Kinase A and Transphosphorylation of SPoOF Assay
- Format: biochemical
- MEASUREMENT_SETUP: inhibition of Kinase A autophosphorylation / SpoOF transphosphorylation, [32P]ATP, gel, phosphoimager
OBSERVED_PROPERTY: IC50 (mM)
Write the answer as a number in mM, unit excluded.

> print(dat)
                                   compound                       system.under.test  observed.property  result.value
1  CCCCC1(CCOc2ccc(CCCNC)cc2)C=CCCC1 (stereo not drawn) [Compound 32]  Kinase A and SpoOF (Bacillus subtilis)               IC50           164
2  COc1ccc(CC2(CCOc3ccc(CCCNC(=N)N)cc3)C=CCCC2)cc1 (stereo not drawn) [Compound 53]  Kinase A and SpoOF (Bacillus subtilis)               IC50           113
3  NCc1ccccc1OCCC1(Cc2ccccc2Cl)C=CCCC1 (stereo not drawn) [Compound 55]  Kinase A and SpoOF (Bacillus subtilis)               IC50          91.3

Entry CNCCc1ccc(OCCCC2(Cc3ccccc3)C=CCCC2)cc1 (stereo not drawn) [Compound 30] , IC50 reported as 145

Entry CCCNCCCc1ccc(OCCC2(c3ccc(F)cc3)C=CCCC2)cc1 (stereo not drawn) [Compound 27] , IC50 reported as 318

Entry NCCNCCc1ccc(OCCC2(Cc3cccc(Cl)c3)C=CCCC2)cc1 (stereo not drawn) [Compound 61] , IC50 reported as 94.6

Entry CCNCCc1ccc(NCCC2(Cc3ccccc3)C=CCCC2)cc1 (stereo not drawn) [Compound 10] , IC50 reported as 257

Entry NCCCCc1ccc(OCCC2(Cc3ccccc3)C=CCCC2)cc1 (stereo not drawn) [Compound 11] , IC50 reported as 353

Entry CCCCNCCCc1ccc(OCCC2(c3ccc(F)cc3)C=CCCC2)cc1 (stereo not drawn) [Compound 26] , IC50 reported as 437
